// data source = patent US20210332115A1

Collected kon values appear next to each entry.
# Study target: T1, Homo sapiens factor Bb protein (human, UniProt P00751 260-764)
# T1 construct: Bought from CompTech (A155); also called complement factor Bb; human factor Bb
# T1 sequence (P00751 260-764 limits assumed): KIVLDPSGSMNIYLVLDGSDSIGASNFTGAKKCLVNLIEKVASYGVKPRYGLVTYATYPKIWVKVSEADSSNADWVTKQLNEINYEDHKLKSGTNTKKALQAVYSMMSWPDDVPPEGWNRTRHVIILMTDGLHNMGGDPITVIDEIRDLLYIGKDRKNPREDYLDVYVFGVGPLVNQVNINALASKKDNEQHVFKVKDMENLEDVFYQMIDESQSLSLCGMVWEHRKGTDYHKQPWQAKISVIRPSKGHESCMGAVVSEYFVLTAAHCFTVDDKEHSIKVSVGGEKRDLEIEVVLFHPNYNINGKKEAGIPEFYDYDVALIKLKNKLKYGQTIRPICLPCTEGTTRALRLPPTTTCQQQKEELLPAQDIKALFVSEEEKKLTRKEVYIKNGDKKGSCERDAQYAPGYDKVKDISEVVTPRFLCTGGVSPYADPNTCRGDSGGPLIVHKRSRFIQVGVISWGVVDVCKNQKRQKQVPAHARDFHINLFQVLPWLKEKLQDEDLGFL
# Test description: SPR single cycle kinetics, IgG on Protein A chip, factor Bb analyte
The reply must contain the numeric value and, after it, the unit.

VH1/Vκ5 (antibody, V domains shown) VH: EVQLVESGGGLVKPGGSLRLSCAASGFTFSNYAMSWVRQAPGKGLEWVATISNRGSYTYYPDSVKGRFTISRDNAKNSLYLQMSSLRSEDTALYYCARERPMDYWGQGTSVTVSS VL: DIQMTQSPSTLSASVGDRVTITCRASQDVGTAVAWYQQKPGQPPKLLIYWASTRHTGVPDRFSGSGSGTDFTLTISSLQAEDFATYYCHQHSSNPLTFGQGTKLEIK
225000 M⁻¹ s⁻¹

Input: Consider the binder shown here: VH0/Vκ1 (control) (antibody, V domains shown) VH: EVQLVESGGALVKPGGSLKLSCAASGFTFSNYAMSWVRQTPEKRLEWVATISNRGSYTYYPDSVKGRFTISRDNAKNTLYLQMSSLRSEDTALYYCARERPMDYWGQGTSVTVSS VL: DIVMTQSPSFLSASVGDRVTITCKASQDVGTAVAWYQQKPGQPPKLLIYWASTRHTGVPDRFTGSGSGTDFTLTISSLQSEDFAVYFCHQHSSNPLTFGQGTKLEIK What is its recorded kon?
Output: 586000 M⁻¹ s⁻¹
